# ASSAY NOTES: Stabilization of d[G3(T2AG3)3] sequence of F21T telomeric G-quadruplex DNA assessed as change in melting temperature at 1 uM by FRET assay
Is change in melting temperature (ΔTm) at least 10 °C? Then Y. If not, N.

Sample answers from the record:
• CN(C)c1ccc(Nc2c3ccc(NC(=O)CCN4CCCC4)cc3nc3cc(NC(=O)CCN4CCCC4)ccc23)cc1 = Y
• O=C(CCN1CCOCC1)Nc1ccc(NC(=O)c2cccc(NC(=O)Nc3cccc(C(=O)Nc4ccc(NC(=O)CCN5CCOCC5)cc4)c3)c2)cc1 = N
• O=C(CCN1CCCC1)Nc1ccc(NC(=O)c2cccc(NC(=O)Nc3cccc(C(=O)Nc4ccc(NC(=O)CCN5CCCC5)cc4)c3)c2)cc1 = Y

Challenge: Say whether O=C(CN1CCCC1)Nc1ccc(NC(=O)c2cccc(NC(=O)Nc3cccc(C(=O)Nc4ccc(NC(=O)CN5CCCC5)cc4)c3)c2)cc1 shows change in melting temperature (ΔTm) of 10 °C or more.
Response given: N

Challenge: Say whether O=C(CCN1CCCC1)Nc1cccc(NC(=O)c2ccc(NC(=O)Nc3ccc(C(=O)Nc4cccc(NC(=O)CCN5CCCC5)c4)cc3)cc2)c1 shows change in melting temperature (ΔTm) of 10 °C or more.
Response given: N

Challenge: Say whether CN(C)CCC(=O)Nc1ccc(NC(=O)c2cccc(NC(=O)Nc3cccc(C(=O)Nc4ccc(NC(=O)CCN(C)C)cc4)c3)c2)cc1 shows change in melting temperature (ΔTm) of 10 °C or more.
Response given: Y

Challenge: Say whether O=C(CCCN1CCCC1)Nc1cc(NC(=O)Nc2cc(NC(=O)CCCN3CCCC3)cc(C(=O)Nc3ccccc3)c2)cc(C(=O)Nc2ccccc2)c1 shows change in melting temperature (ΔTm) of 10 °C or more.
Response given: Y

---

# MEASURED ON: Telomerase reverse transcriptase (Homo sapiens)
# Sequence (O14746 whole entry): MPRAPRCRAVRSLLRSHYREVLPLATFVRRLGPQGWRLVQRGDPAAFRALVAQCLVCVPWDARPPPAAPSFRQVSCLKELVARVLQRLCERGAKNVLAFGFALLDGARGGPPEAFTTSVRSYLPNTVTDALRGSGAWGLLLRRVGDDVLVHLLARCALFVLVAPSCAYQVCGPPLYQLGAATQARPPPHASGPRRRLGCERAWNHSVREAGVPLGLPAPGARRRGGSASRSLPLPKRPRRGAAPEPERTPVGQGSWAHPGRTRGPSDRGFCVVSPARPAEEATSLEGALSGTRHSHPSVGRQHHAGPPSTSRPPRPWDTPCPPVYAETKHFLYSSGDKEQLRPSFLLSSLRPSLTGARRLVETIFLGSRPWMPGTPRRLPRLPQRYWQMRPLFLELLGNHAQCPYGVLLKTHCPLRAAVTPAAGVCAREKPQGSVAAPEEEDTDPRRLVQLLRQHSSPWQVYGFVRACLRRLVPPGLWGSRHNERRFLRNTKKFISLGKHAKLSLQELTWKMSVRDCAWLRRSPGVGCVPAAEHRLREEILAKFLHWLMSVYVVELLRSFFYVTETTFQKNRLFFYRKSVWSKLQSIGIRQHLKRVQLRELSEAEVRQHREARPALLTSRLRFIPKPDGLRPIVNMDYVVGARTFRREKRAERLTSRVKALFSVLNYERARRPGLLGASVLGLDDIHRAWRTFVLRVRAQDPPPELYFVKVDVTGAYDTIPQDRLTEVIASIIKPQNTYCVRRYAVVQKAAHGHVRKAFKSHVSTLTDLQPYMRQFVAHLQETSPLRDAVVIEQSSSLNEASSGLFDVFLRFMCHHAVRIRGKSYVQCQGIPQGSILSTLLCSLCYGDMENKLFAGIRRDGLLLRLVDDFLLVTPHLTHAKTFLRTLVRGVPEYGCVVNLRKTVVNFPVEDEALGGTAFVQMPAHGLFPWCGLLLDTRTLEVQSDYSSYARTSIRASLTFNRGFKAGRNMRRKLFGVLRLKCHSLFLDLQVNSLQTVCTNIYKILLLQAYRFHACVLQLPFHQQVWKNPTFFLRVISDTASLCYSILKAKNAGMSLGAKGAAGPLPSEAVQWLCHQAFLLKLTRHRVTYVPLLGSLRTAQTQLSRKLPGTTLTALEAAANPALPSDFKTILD
# ASSAY NOTES: Inhibition of telomerase by TRAP-LIG assay
pEC50: −log10 of the molar value.
In this section we review reported pEC50 values for a set of molecules.

* O=C(CCN1CCCC1)Nc1ccc(NC(=O)c2cccc(NC(=O)Nc3cccc(C(=O)Nc4ccc(NC(=O)CCN5CCCC5)cc4)c3)c2)cc1 | < 4.30

Notebook: O=C(CCCN1CCCC1)Nc1ccc(NC(=O)c2cccc(NC(=O)Nc3cccc(C(=O)Nc4ccc(NC(=O)CCCN5CCCC5)cc4)c3)c2)cc1 , pEC50 read as < 4.30

Notebook: O=C(CN1CCCC1)Nc1ccc(NC(=O)c2cccc(NC(=O)Nc3cccc(C(=O)Nc4ccc(NC(=O)CN5CCCC5)cc4)c3)c2)cc1 , pEC50 read as < 4.30

---

In this section we review reported pIC50 values for a set of compounds.
# Test system: A549
# ASSAY NOTES: Cytotoxicity against human A549 cells after 96 hrs by SRB assay
# Format: functional, cell-based
# SETUP CONDITIONS: A549, 96 h
pIC50: −log10 of the molar value.

Take a look at these entries with their results.
• O=C(CCN1CCOCC1)Nc1ccc(NC(=O)c2cccc(NC(=O)Nc3cccc(C(=O)Nc4ccc(NC(=O)CCN5CCOCC5)cc4)c3)c2)cc1 = < 4.30
• O=C(CCN1CCCCC1)Nc1ccc(NC(=O)c2cccc(NC(=O)Nc3cccc(C(=O)Nc4ccc(NC(=O)CCN5CCCCC5)cc4)c3)c2)cc1 = < 4.30
• CN(C)CCC(=O)Nc1ccc(NC(=O)c2cccc(NC(=O)Nc3cccc(C(=O)Nc4ccc(NC(=O)CCN(C)C)cc4)c3)c2)cc1 = < 4.30

Notebook: O=C(CCN1CCCC1)Nc1ccc(NC(=O)c2cccc(NC(=O)Nc3cccc(C(=O)Nc4ccc(NC(=O)CCN5CCCC5)cc4)c3)c2)cc1 , pIC50 read as 5.28

Notebook: O=C(CN1CCCC1)Nc1ccc(NC(=O)c2cccc(NC(=O)Nc3cccc(C(=O)Nc4ccc(NC(=O)CN5CCCC5)cc4)c3)c2)cc1 , pIC50 read as < 4.30

Notebook: O=C(CCCN1CCCC1)Nc1ccc(NC(=O)c2cccc(NC(=O)Nc3cccc(C(=O)Nc4ccc(NC(=O)CCCN5CCCC5)cc4)c3)c2)cc1 , pIC50 read as < 4.30
